List of pIC50 tested on CDK7 (Homo sapiens, UniProt P50613).
Sequence (P50613 whole entry): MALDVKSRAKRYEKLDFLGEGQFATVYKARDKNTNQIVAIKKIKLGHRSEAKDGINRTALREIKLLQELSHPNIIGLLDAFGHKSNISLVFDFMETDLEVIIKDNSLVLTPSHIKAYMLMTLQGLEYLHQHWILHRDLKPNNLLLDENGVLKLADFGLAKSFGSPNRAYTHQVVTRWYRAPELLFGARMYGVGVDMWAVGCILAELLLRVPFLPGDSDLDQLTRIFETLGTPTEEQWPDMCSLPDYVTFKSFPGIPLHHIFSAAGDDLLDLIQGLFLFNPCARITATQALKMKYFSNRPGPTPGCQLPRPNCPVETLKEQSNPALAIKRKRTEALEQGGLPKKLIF
Sequence (P51946 whole entry partner): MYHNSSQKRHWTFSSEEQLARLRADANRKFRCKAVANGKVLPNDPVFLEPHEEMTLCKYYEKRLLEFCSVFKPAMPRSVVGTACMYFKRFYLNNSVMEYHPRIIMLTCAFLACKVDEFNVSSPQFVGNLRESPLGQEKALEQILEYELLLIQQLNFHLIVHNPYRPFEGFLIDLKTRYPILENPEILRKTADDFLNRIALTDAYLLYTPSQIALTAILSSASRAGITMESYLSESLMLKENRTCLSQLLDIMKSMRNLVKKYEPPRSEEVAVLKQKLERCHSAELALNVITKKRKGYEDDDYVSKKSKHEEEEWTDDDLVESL
Sequence (P51948 whole entry partner): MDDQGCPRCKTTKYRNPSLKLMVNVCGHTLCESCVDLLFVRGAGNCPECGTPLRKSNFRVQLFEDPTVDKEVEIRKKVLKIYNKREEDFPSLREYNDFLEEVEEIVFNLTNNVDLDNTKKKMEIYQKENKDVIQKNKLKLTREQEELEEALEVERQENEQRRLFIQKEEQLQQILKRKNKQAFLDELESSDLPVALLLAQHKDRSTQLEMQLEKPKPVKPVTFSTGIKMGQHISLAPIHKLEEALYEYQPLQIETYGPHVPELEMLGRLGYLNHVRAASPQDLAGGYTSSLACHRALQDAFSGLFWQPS
pIC50: −log10 of the molar value. Structures can show the parent of a compound that is named as a salt.

[
  {
    "Molecule": "CN1CCN(c2cccc(Nc3cc4c(C5CCCC5)c(C#N)sc4cn3)c2)CC1 [Compound B9]",
    "pIC50": 6.06
  },
  {
    "Molecule": "CC(=O)N1CCN(c2ccc(Nc3cc4c(C5CCCC5)c(C#N)sc4cn3)nc2)CC1 [Compound B12]",
    "pIC50": 5.01
  },
  {
    "Molecule": "N#Cc1sc2cnc(Nc3ccc(N4CCNCC4)cn3)cc2c1C1CCCC1 [Compound B1s, hydrochloride]",
    "pIC50": 8.14
  },
  {
    "Molecule": "CN1CCN(c2ccc(Nc3cc4c(C5CCCC5)c(C#N)sc4cn3)nc2)CC1 [Compound B5]",
    "pIC50": 7.66
  },
  {
    "Molecule": "CN1CCN(c2ccc(Nc3cc4c(C5CCCC5)c(C#N)sc4cn3)cc2)CC1 [Compound B4]",
    "pIC50": 7.33
  }
]
